# Tested on: Calu-3
# PROTOCOL: cell viability relative to DMSO; higher = less toxic
# CONDITION_LABEL: 72 h; 10 nM
OUTCOME_MEASURE: cell viability (%)
Could you give me the number in %? Just the number is fine.

cell viability on Calu-3 for COc1ccc(Cc2cnc(N)nc2N)cc1OC [diaveridine] is 94.4

cell viability on Calu-3 for COC(=O)Nc1nc2cc(C(=O)c3cccs3)ccc2[nH]1 [nocodazole] is 105

cell viability on Calu-3 for COC(=O)Nc1nc2cc(C(=O)c3ccc(F)cc3)ccc2[nH]1 [flubendazole] is 87.9

cell viability on Calu-3 for O=C(O)c1cc([N+](=O)[O-])ccc1NCCCc1ccccc1 [NPPB] is 105

cell viability on Calu-3 for CC(=O)OCC(=O)[C@@]1(O)CC[C@H]2[C@@H]3CCC4=CC(=O)C=C[C@]4(C)[C@@]3(F)[C@@H](O)C[C@@]21C [isoflupredone-acetate] is 97.2

* * *

# Test system: Vero E6
# PROTOCOL: drug sensitivity score (DSS) for viability; higher = more toxic; extreme values may be limits of the assay
# CONDITION_LABEL: 72 h
OUTCOME_MEASURE: drug sensitivity score
The reply should be a number, written without any unit.

Form field drug sensitivity score, entry CN1CCC[C@@H]1CCSc1ccc(O)cc1 [SIB-1553A] : 0

Form field drug sensitivity score, entry CC1(C)OC(=O)C(OCC2CC2)=C1c1ccc(S(C)(=O)=O)cc1 [firocoxib] : 0

Form field drug sensitivity score, entry CC(C)CC(NC(=O)OCC1c2ccccc2-c2ccccc21)C(=O)O (stereo in doubt) : 0

Form field drug sensitivity score, entry CCN(CC)CCCCNc1ncc2cc(-c3c(Cl)cccc3Cl)c(NC(=O)NC(C)(C)C)nc2n1 : 3.8

Form field drug sensitivity score, entry CSc1nc(NC2CCCC2)c([N+](=O)[O-])c(NC2CCCC2)n1 : 0

Form field drug sensitivity score, entry CN1CCN(c2c(F)cc3c(=O)c(C(=O)O)cn4c3c2SCC4)CC1 [rufloxacin] : 0

Form field drug sensitivity score, entry C[C@]12CC[C@H](O)C[C@H]1CC[C@@H]1[C@@H]2C[C@@H](O)[C@]2(C)[C@@H](C3=CC(=O)OC3)CC[C@]12O [digoxigenin] : 21.4

Form field drug sensitivity score, entry CN(C)CCCC1(c2ccc(F)cc2)OCc2cc(C#N)ccc21 (configuration not stated) [citalopram] : 0

Form field drug sensitivity score, entry N[C@@H](Cc1ccc(O)cc1)C(=O)NCC(=O)NCC(=O)O [IMREG-1] : 0

Form field drug sensitivity score, entry CC(C)(S)C(N)C(=O)O (stereo in doubt) [penicillamine-(racemic)] : 0

Form field drug sensitivity score, entry NC(=O)c1cccc(-c2cc(Nc3ccc(OC(F)(F)F)cc3)ncn2)c1 [GNF-2] : 0

Form field drug sensitivity score, entry OCc1ccc(CO)o1 [2,5-furandimethanol] : 0

Form field drug sensitivity score, entry Cc1c(CC(C)(C)C(=O)O)n(Cc2ccc(Cl)cc2)c2ccc(F)cc12 : 0

Form field drug sensitivity score, entry O=C(Nc1ncc(SCCN2CCCC2)s1)[C@]1(c2ccc(S(=O)(=O)C3CC3)cc2)C[C@H]1C1CCCCC1 : 0

Form field drug sensitivity score, entry c1cc2c(cc1[C@H]1OC[C@H]3[C@@H]1CO[C@@H]3c1ccc3c(c1)OCO3)OCO2 [sesamin] : 0

Form field drug sensitivity score, entry CC(C)C(=O)c1ccc(O)c(O)c1 [U-0521] : 0

Form field drug sensitivity score, entry Cc1cnc(C(=O)NCCc2ccc(S(=O)(=O)NC(=O)NC3CCCCC3)cc2)cn1 [glipizide] : 0

* * *

So I've got a bunch of compounds here, and I need their drug sensitivity score values.
# Test system: U2OS
# PROTOCOL: drug sensitivity score (DSS) for viability; higher = more toxic; extreme values may be limits of the assay
# CONDITION_LABEL: 72 h
The reply should be a number, written without any unit.

Form field drug sensitivity score, entry Nc1nc(Nc2ccc(S(N)(=O)=O)cc2)nn1C(=O)c1c(F)cccc1F : 5.1

Form field drug sensitivity score, entry O=C(Nc1ncc(SCCN2CCCC2)s1)[C@]1(c2ccc(S(=O)(=O)C3CC3)cc2)C[C@H]1C1CCCCC1 : 0.8

Form field drug sensitivity score, entry Cc1cc(C)cc(NC(=O)Nc2ccc(OS(N)(=O)=O)cc2)c1 [S4] : 0

Form field drug sensitivity score, entry O=C(O)CNC(=O)c1ccccc1I [2-iodohippuric-acid] : 0

Form field drug sensitivity score, entry C=C1c2cccc(O)c2C(=O)C2=C(O)[C@]3(O)C(=O)C(C(N)=O)=C(O)[C@@H](N(C)C)[C@@H]3[C@@H](O)[C@H]12 [methacycline] : 0

Form field drug sensitivity score, entry Cc1n[nH]c(C)c1Cc1sc2c(c1C(=O)N1C[C@H](O)CO1)c(=O)n(C)c(=O)n2CC(C)C : 1.2

Form field drug sensitivity score, entry C[N+](C)(C)CC#CCN1CCCC1=O [oxotremorine-M] : 0

* * *

So I've got a bunch of molecules here, and I need their cell viability values.
# Tested on: Caco-2
# PROTOCOL: cell viability relative to DMSO; higher = less toxic
# CONDITION_LABEL: 72 h; 100 nM
Could you give me the number in %? Just the number is fine.

Form field cell viability, entry CCS(=O)(=O)c1cccc(-c2cc(C(=O)NC3CCN(C)CC3)c(C)c3[nH]c4ncc(C)cc4c23)c1 : 90.4

Form field cell viability, entry CCN(CC)C(=O)N1CCN(C)CC1 : 97.2

Form field cell viability, entry OC(c1ccccc1)(c1ccccc1)C1CCNCC1 : 97

Form field cell viability, entry CC(C)C[C@@H](C=O)NC(=O)[C@H](CC(C)C)NC(=O)[C@H](CC(C)C)NC(=O)OCc1ccccc1 : 94.5

Form field cell viability, entry O=C(O)c1cc2cccc([N+](=O)[O-])c2[nH]1 : 88.4

* * *

So I've got a bunch of molecules here, and I need their cell viability values.
# Test system: Caco-2
# PROTOCOL: cell viability relative to DMSO; higher = less toxic
# CONDITION_LABEL: 72 h; 1000 nM
Could you give me the number in %? Just the number is fine.

Form field cell viability, entry CC(=O)NCCC(=O)N[C@@H](Cc1c[nH]cn1)C(=O)O : 86.5

Form field cell viability, entry O=C(/C=C\n1cnc(-c2cc(C(F)(F)F)cc(C(F)(F)F)c2)n1)N1CC(F)(F)C1 : 73.9

Form field cell viability, entry C[C@@H](NCCCc1cccc(C(F)(F)F)c1)c1cccc2ccccc12 : 89.1

Form field cell viability, entry CN1Cc2c(C(=O)OC(C)(C)C)ncn2-c2ccsc2C1=O : 100

Form field cell viability, entry N=C(N)c1ccc(/N=N/Nc2ccc(C(=N)N)cc2)cc1 [diminazene-aceturate] : 91.1

Form field cell viability, entry CCCCCCCCCCC(CO)CCCCCCCC (centres undefined) : 93.1

Form field cell viability, entry N#CC(Cc1ccc(O)cc1)c1ccc(O)cc1 (centres undefined) : 100

Form field cell viability, entry Cc1ccc2c(c1)C1(CCN(CCc3nc(-c4ccccc4)oc3C)CC1)OC(=O)N2 : 94.4

Form field cell viability, entry COc1ccc(S(=O)(=O)N2CCC[C@H]2C(=O)Nc2cc(C)cc(C)c2)cc1 : 102

Form field cell viability, entry O=C(C(c1ccccc1)c1ccccc1)N1CCN(CC(O)COc2cccc3ncccc23)CC1 (centres undefined) : 103

Form field cell viability, entry C=CCNc1ncnc2ccc(Br)cc12 : 103

Form field cell viability, entry CO/N=C(\C(=O)N[C@@H]1C(=O)N2C(C(=O)O)=C(COC(N)=O)CS[C@H]12)c1ccco1 [CEFUROXIME SODIUM] : 107

Form field cell viability, entry OC(CCN1CCCCC1)(c1ccccc1)c1ccccc1 : 94.9

Form field cell viability, entry CCCSc1nc(N[C@@H]2C[C@H]2c2ccc(F)c(F)c2)c2nnn([C@@H]3C[C@H](OCCO)[C@@H](O)[C@H]3O)c2n1 : 97.1

Form field cell viability, entry CC(=O)c1ccc(S(=O)(=O)NC(=O)NC2CCCCC2)cc1 [acetohexamide] : 75.4

Form field cell viability, entry C/N=C(/NC#N)NCCSCc1csc(NC(=N)N)n1 : 104

Form field cell viability, entry O=C(O)CNC(=O)c1ccccc1I : 96.4

Form field cell viability, entry CC(CCc1ccccc1)NCC(O)c1ccc(O)c(C(N)=O)c1 (centres undefined) : 91.2

Form field cell viability, entry C#C[C@]1(O)CC[C@H]2[C@@H]3CCc4cc(O)ccc4[C@H]3CC[C@@]21C : 99.4

* * *

So I've got a bunch of compounds here, and I need their cell viability values.
# Tested on: Caco-2
# PROTOCOL: cell viability relative to DMSO; higher = less toxic
# CONDITION_LABEL: 72 h; 1000 nM

cell viability on Caco-2 for CCc1cc(Cl)c(OC)c(C(=O)NC[C@@H]2CCCN2CC)c1O [eticlopride] is 103%

cell viability on Caco-2 for C[C@H](NC(=O)[C@@H](O)c1cc(F)cc(F)c1)C(=O)N[C@@H]1C(=O)N(C)c2ccccc2-c2ccccc21 is 86%

cell viability on Caco-2 for CC(C)(C)c1cc(C(=O)/C=C/c2ccc(C(=O)O)cc2)cc(C(C)(C)C)c1 [CH55] is 93.3%

cell viability on Caco-2 for O=C(CC(c1ccccc1)c1ccccc1)N1CCN(C(c2ccccc2)c2ccccc2)CC1 [Z160] is 92.9%
